From: ChEMBL document CHEMBL1140948

Assay: Partition coefficient, log P of the compound
Format: physicochemical
Settings: octanol/water; read-out: logP
MEASURE: logP

1) C[C@H]1[C@@H](CC(C[C@H]2O[C@@H]3C[C@]4(C)CC[C@H]5[C@H](C)CC[C@@H]([C@H]2C)[C@@]35OO4)CS(=O)(=O)c2ccc(COC(=O)N(C)C)cc2)O[C@@H]2C[C@]3(C)CC[C@H]4[C@H](C)CC[C@@H]1[C@@]24OO3    7.6
2) CCOP(=O)(OCC)OCc1ccc(S(=O)(=O)CC(C[C@H]2O[C@@H]3C[C@]4(C)CC[C@H]5[C@H](C)CC[C@@H]([C@H]2C)[C@@]35OO4)C[C@H]2O[C@@H]3C[C@]4(C)CC[C@H]5[C@H](C)CC[C@@H]([C@H]2C)[C@@]35OO4)cc1    8.8
3) CCN(CC)C(=O)OCc1ccc(S(=O)(=O)CC(C[C@H]2O[C@@H]3C[C@]4(C)CC[C@H]5[C@H](C)CC[C@@H]([C@H]2C)[C@@]35OO4)C[C@H]2O[C@@H]3C[C@]4(C)CC[C@H]5[C@H](C)CC[C@@H]([C@H]2C)[C@@]35OO4)cc1    8.3
